All values here come from PubChem BioAssay AID1159580.

Answer each item with its documented normalized growth.
# experimentNotes: chemical genetic growth profiling, strain panel (AID 1159580);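 also: tested at 20 µM; growth read once vehicle control cultures reached saturation at 30 °C; 1 = growth at the plate median or of vehicle wells; lower values mean less growth of the strain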
# conditions: S. cerevisiae deletion strains, growth OD, locus YER111C, strain swi4, active compounds read low
About 2,000 (36%) of roughly 5,500 compounds were called active. Not shown: some 18% with an inconclusive outcome. The list shows a part of the results.
One number for each entry.

Some molecules with recorded normalized growth:
1) C[C@H](COc1ccccc1)N[C@H](C)[C@H](O)c1ccc(O)cc1
0.988
2) Nc1nc(N)c2nc(CNc3ccc(C(=O)NC(CCC(=O)O)C(=O)O)cc3)cnc2n1 (stereo unspecified)
0.995
3) CCCNC(C)C(=O)Nc1ccccc1C (stereo unspecified)
1
4) COc1ccc(C[C@H](N)C(=O)N[C@@H]2[C@@H](CO)OC(n3cnc4c(N(C)C)ncnc43)[C@@H]2O)cc1 (stereo partly specified)
0.977

Would you be so kind as to report normalized growth for each listed record?
1. O=C(O)c1cc(=O)c2c(OCC(O)COc3cccc4oc(C(=O)O)cc(=O)c34)cccc2o1
2. COc1ccc(C=CC(=O)c2ccc(O)cc2O)cc1OC

RESULT:
1: 0.972; 2: 0.994

* * *

# experimentNotes: chemical genetic growth profiling, strain panel (AID 1159580);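 also: tested at 20 µM; growth read once vehicle control cultures reached saturation at 30 °C; 1 = growth at the plate median or of vehicle wells; lower values mean less growth of the strain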
# conditions: S. cerevisiae deletion strains, growth OD, locus YGL253W, strain hxk2, active compounds read low
Among all 5,500 compounds or so, about 2,000 (36%) were called active. Another 18% or so got no clear call; they are omitted. The list shows a part of the results.
Please provide measured normalized growth for the entries that follow.
Answers are plain numbers.

Before answering, review these 5 worked examples.
1) Nc1nccs1
1.01
2) CC1=C(/C=C/C(C)=C/C=C/C(C)=C/C(=O)O)C(C)(C)CCC1
0.99
3) Nc1c(Br)cc(Br)cc1CNC1CCC(O)CC1 (stereo not given)
1.01
4) CCOC(=O)c1ccc(N)cc1
1.01
5) Nc1nc2c(c(=O)[nH]1)N(C=O)C(CNc1ccc(C(=O)N[C@@H](CCC(=O)O)C(=O)O)cc1)CN2 (stereo not given in full)
0.986

For each listed entry, give its normalized growth.
1. O=C(O)P(=O)(O)O
2. COc1ccc(-c2cc(C(F)F)nn2-c2ccc(S(N)(=O)=O)cc2)cc1F
3. O=C(O)CNCP(=O)(O)O
4. C[C@]12CCC3c4ccc(OS(=O)(=O)O)cc4CCC3C1CCC2=O (stereo not given in full)
5. Nc1ccc(S(=O)(=O)Nc2nccs2)cc1

RESULT:
0.985
1.01
1.01
0.996
1.02

* * *

# experimentNotes: chemical genetic growth profiling, strain panel (AID 1159580);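 also: tested at 20 µM; growth read once vehicle control cultures reached saturation at 30 °C; 1 = growth at the plate median or of vehicle wells; lower values mean less growth of the strain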
# conditions: S. cerevisiae deletion strains, growth OD, locus YBR231C, strain swc5, active compounds read low
The campaign covered roughly 5,500 compounds. About 2,000 (36%) were called active. Not shown: some 18% with an inconclusive outcome. The list shows a part of the results.
assayMetric: normalized growth
One number for each entry.

Reference set (4 entries):
1) COc1ccc(/C=C/C(=O)O)cc1OC
0.981
2) O=C(O)CCCCC1SCC2NC(=O)NC21 (stereo not given)
0.998
3) CC1=C(/C=C/C(C)=C/C=C/C(C)=C/C=C/C=C(C)/C=C/C=C(C)/C=C/C2=C(C)CCCC2(C)C)C(C)(C)CCC1
1.02
4) O=C(O)P(=O)(O)O
0.958

Next item in the queue.
QUERY: Field request: normalized growth | item: `CC[C@]12CCCN3CCc4c(n(c5ccccc45)C(=O)C1)[C@@H]32`
RESULT: 1.01
